Recorded TGI values for a group of compounds are listed next.
System: SNB-19 CNS
Assay: NCI tumour cell line growth inhibition, 48 h

COMPOUND	VALUE_MEASURED
CC(=O)NC(Cc1c[nH]c2ccccc12)C(=O)O (stereo unspecified)	> 100 µM

Next:
Field TGI (entry O=C1CCC(NC(=O)Cc2ccc(O)cc2)C(=O)N1 (stereo unspecified) ) reads > 2500 µM

---

Recorded TGI values for a group of compounds are listed next.
Tested on: SW-620 colon
Experiment: NCI tumour cell line growth inhibition, 48 h

Field: example entries. Status: answers known.
COMPOUND	READOUT	VALUE_MEASURED
O=c1[nH]cnc2c1nnn2[C@@H]1O[C@H](CO)[C@@H](O)[C@H]1O	TGI	> 100 µM
CCC1=NC(N/N=C/c2ccccc2O)=N/C1=C\c1ccccc1O	TGI	> 100 µM
CC1=C([Se]CC(OC(=O)[C@@H](CSSC(C)(C)C)NC(=O)C(C)(C)C)C(=O)NCCCCCC(=O)OCc2ccccc2)C(=O)c2ccccc2C1=O (stereo not given in full)	TGI	5.2 µM
C#CCOC(=O)C(N)CS (stereo not given)	TGI	> 100 µM

Field TGI (entry C=CCOCCCC(=O)C(=[N+]=[N-])C(=O)OC ) reads > 100 µM

Field TGI (entry Cc1cc2c(cc1Cl)SC(NNC(=O)c1ccncc1)=NS2(=O)=O ) reads > 10 µM

Field TGI (entry O=C1OC(c2ccccc2)(c2ccccc2)CC1CN1CCOCC1 (stereo not given) ) reads 18 µM

Field TGI (entry Cc1cccc(NC(=O)CSc2nnc(Cc3ccccc3)o2)c1 ) reads > 100 µM

Field TGI (entry c1cncc(-c2cc(-c3cc(-c4cccnc4)n[nH]3)[nH]n2)c1 ) reads > 100 µM

Field TGI (entry CN1CCN(Cc2ccc(NC(=O)c3[nH]ncc3Nc3ccnc4ccsc34)cc2)CC1 ) reads 12 µM

Numbers sourced from PubChem BioAssay (NCI).
